Test: Antiferroptotic activity in human HT1080 cells assessed as inhibition of erastin-induced cell death
Format: functional, cell-based
Settings: HT-1080
quantity kind: IC50 (nM)

> print(dat)
                          structure.smiles  experimental.value
1  CCOC(=O)c1ccc(NC2CCCCC2)c(NCc2ccccc2)c1                   6

----------
Assay: Half life in C57BL/6 mouse plasma
Format: ADME, cell-free
quantity kind: half-life

> print(dat)
                           structure.smiles  experimental.value
1  CC(C)(C)OC(=O)c1ccc(NC23CC4CC(CC(C4)C2)C3)c(/N=C\c2cncnc2)c1               ≥ 2 h
